- Test system: MDA-MB-231
- assay.method.text: MTT cell viability, MDA-MB-231
- Type: cell-based, human
- study.conditions: MTT assay, 24 h treatment
Non-standard residues stand in square brackets, D forms with d. Residues, ends and D or L forms follow the SMILES beside them. Aib = CC(C)(N)C(=O)O; βAla = NCCC(=O)O
assay.endpoint: cytotoxic activity towards MDA-MB-231 cells (in words)

compound	assay.result
CC(=O)N[C@H](Cc1c[nH]c2ccccc12)C(=O)NCCC(=O)N[C@H](CC(C)C)C(=O)N[C@H](CC(C)C)C(=O)N[C@H](CC(C)C)C(=O)N[C@H](CC(C)C)C(=O)NC(C)(C)C(=O)NC(C)(C)C(=O)NC(C)(C)C(=O)NC(C)(C)C(=O)N[C@H](CCCCN)C(=O)N[C@H](CCCCN)C(=O)N[C@H](CCCCN)C(=O)N[C@H](CCCCN)C(=O)N[C@H](CCCCN)C(=O)N[C@H](CCCCN)C(N)=O [lUk] (Ac-[dW][βAla][dL][dL][dL][dL][Aib][Aib][Aib][Aib][dK][dK][dK][dK][dK][dK]-NH2)	decreased efficiency
CC(=O)N[C@H](Cc1c[nH]c2ccccc12)C(=O)NCCC(=O)N[C@H](CCCCN)C(=O)N[C@H](CC(C)C)C(=O)NC(C)(C)C(=O)N[C@H](CCCCN)C(=O)N[C@H](CCCCN)C(=O)N[C@H](CC(C)C)C(=O)NC(C)(C)C(=O)N[C@H](CCCCN)C(=O)N[C@H](CC(C)C)C(=O)NC(C)(C)C(=O)N[C@H](CCCCN)C(N)=O [Uk11] (Ac-[dW][βAla][dK][dL][Aib][dK][dK][dL][Aib][dK][dL][Aib][dK]-NH2)	decreased efficiency
